- targetUnderTest: Discoidin domain-containing receptor 2 (Homo sapiens)
- Sequence (whole entry): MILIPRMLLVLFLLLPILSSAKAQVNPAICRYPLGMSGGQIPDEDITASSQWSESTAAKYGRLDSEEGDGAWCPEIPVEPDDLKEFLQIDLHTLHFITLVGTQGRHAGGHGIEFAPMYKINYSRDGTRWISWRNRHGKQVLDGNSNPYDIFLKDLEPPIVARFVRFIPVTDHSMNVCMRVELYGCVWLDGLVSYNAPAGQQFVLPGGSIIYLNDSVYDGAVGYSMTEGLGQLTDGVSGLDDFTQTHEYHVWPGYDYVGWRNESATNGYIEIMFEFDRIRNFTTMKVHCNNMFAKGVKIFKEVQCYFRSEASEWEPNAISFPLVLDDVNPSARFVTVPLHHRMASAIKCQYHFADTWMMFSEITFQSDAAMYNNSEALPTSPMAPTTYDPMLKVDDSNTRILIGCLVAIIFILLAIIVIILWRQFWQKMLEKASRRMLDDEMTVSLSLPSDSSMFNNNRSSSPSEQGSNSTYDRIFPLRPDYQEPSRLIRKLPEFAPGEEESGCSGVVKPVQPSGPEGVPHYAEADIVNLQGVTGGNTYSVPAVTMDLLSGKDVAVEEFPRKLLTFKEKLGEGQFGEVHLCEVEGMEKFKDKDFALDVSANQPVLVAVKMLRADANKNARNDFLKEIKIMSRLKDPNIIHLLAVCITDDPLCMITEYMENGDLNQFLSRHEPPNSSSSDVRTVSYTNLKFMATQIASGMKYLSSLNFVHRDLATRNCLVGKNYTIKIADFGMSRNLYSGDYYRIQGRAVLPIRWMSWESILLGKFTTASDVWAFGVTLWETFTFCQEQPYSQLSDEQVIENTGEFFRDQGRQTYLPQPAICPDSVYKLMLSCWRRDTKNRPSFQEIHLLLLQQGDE
- conditionInfo: at 1 µM
observationType: inhibition

Param readout= inhibition; system= Discoidin domain-containing receptor 2 (Homo sapiens); entry= NC(=O)c1ccc(Oc2nccc(-c3c(-c4ccc(F)cc4)ncn3C3CCNCC3)n2)cc1 ; returns value.
0.3%

Param readout= inhibition; system= Discoidin domain-containing receptor 2 (Homo sapiens); entry= O=C1Nc2ccccc2/C1=C/Nc1ccc(-n2cncn2)cc1 ; returns value.
0.37%

Param readout= inhibition; system= Discoidin domain-containing receptor 2 (Homo sapiens); entry= O=C(Nc1n[nH]c2nc(-c3ccc(O)cc3)c(Br)cc12)C1CC1 ; returns value.
4.12%

Param readout= inhibition; system= Discoidin domain-containing receptor 2 (Homo sapiens); entry= C[C@@H](Oc1cc(-n2cnc3ccc(OC4CCN(C)CC4)cc32)sc1C(N)=O)c1ccccc1Cl ; returns value.
4.56%

Param readout= inhibition; system= Discoidin domain-containing receptor 2 (Homo sapiens); entry= COc1cc2ncn(-c3cc(OCc4ccccc4C(F)(F)F)c(C(C)=O)s3)c2cc1OC ; returns value.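 Note: reported figure is the mean inhibition of DDR2.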
5.22%
